A collection of binders and their measured IC50, synoviocyte IL-6 production, rhIL-17A (30 ng/ml)
- SYSTEM_NAME: T1, rhIL-17A (human, UniProt Q16552 24-155)
- T1 sequence: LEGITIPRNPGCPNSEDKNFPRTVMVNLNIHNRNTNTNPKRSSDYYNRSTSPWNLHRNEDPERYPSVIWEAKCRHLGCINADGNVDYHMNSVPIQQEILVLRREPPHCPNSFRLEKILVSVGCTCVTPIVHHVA
- ASSAY_NAME: cell-based or functional assay
Kindly answer with a numeric value in µg/mL, unit omitted.

rat 1D10 (antibody, V domains shown, Parental rat monoclonal antibody; also called ID10; anti-IL-17A antibody 1D10) VH: QVQLKESGPGLVQPSQTLSLTCTVSGFSLTNYYVHWVRQPPGKGLEWMGGVWNDGDTSYNSVLRSRLSITRDTSKSQVLLKMSSLQTEDTATYYCAREGREGFVGYYVMDAWGPGASVTVSS VL: DIQMTQSPSFLSASVGERVTLSCKASQNINKYLDWFQQKLGEAPKLLIYNADNLHTGIPSRFSGSGSFSDFILTISSLQPEDDATYFCLQRESWPYTFGAGTKLELKR :: 0.105
humanized 16C10 (VH N54Q/M96A) (antibody, human IgG1, kappa, V domains shown, Human IgG1/kappa; also called hu 16C10; hu16C10) VH: QVQLQESGPGLVKPSETLSLTCTVSGFSLPSHSVSWIRQPPGKGLEWIGIIWNQGGTDYNSAFKSRVTISVDTSKNQFSLKLSSVTAADTAVYYCARNAYITDYYYENYFMDAWGQGTLVTVSS VL: DIVMTQSPLSLPVTPGEPASISCKSSQSLLFSENQKNYLAWYLQKPGQSPQLLIYWTSTRQSGVPDRFSGSGSGTDFTLKISRVEAEDVGVYYCQQSYYTPYTFGQGTKVEIKR :: 0.07
hu 16C10 VH N54Q/M96A/M100hF (antibody, human IgG1, kappa, V domains shown, Human IgG1/kappa; also called hu 16C10 VH 54Q/M96A/M100hF; hu16C10 (N54Q/M96A/M100hF)) VH: QVQLQESGPGLVKPSETLSLTCTVSGFSLPSHSVSWIRQPPGKGLEWIGIIWNQGGTDYNSAFKSRVTISVDTSKNQFSLKLSSVTAADTAVYYCARNAYITDYYYENYFFDAWGQGTLVTVSS VL: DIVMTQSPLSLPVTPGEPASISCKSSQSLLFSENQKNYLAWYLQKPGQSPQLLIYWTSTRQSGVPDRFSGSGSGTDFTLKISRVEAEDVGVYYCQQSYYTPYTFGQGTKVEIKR :: 0.07
hu 16C10 VH M100hF (antibody, human IgG1, V domains shown, Variant of hu 16C10 wt; Human IgG1/kappa; also called hu16C10 (M100hF)) VH: QVQLQESGPGLVKPSETLSLTCTVSGFSLPSHSVSWIRQPPGKGLEWIGIIWNNGGTDYNSAFKSRVTISVDTSKNQFSLKLSSVTAADTAVYYCARNMYITDYYYENYFFDAWGQGTLVTVSS VL: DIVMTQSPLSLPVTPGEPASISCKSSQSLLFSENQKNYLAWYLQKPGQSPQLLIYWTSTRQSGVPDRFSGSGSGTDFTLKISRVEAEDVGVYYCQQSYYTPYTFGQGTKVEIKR :: 0.07

Kindly indicate its recorded IC50, synoviocyte IL-6 production, rhIL-17A (30 ng/ml). Item: hu 16C10 VH N54Q (antibody, human IgG1, V domains shown, Variant of hu 16C10 wt; Human IgG1/kappa; also called hu16C10 (N54Q)) VH: QVQLQESGPGLVKPSETLSLTCTVSGFSLPSHSVSWIRQPPGKGLEWIGIIWNQGGTDYNSAFKSRVTISVDTSKNQFSLKLSSVTAADTAVYYCARNMYITDYYYENYFMDAWGQGTLVTVSS VL: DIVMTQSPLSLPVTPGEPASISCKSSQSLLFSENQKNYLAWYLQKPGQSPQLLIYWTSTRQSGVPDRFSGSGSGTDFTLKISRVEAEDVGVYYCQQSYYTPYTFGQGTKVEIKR 0.06
